meta.source: PubChem BioAssay AID1508600

# test_protocol: Components of the Cytosolic LPS Sensing Pathway: Gene Identification via Genome-wide siRNA Screen;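 also: robust z of the log signal after scaling to non-targeting control siRNA wells of the plate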
# conditions_used: RAW264.7 macrophages, IL-1a HTRF, actives lie on both sides, screened at 100 nM (by protocol), cells primed 5 h with Pam3CSK4 first
Hit rate of the full screen: of about 53,000 sequences, about 3,700 (7%) were called active. The full list was thinned out, with actives kept by preference.
measured_endpoint: z-score

GAGCUGUGAAUGCCUGUGGTT against Lyz2 = -2.33 (active)
GGAGUGUGUGCUUUUAAAATT against Rabggta = 0.248 (inactive)
GGCUUACAAAAAGUACAUCTT against Tpt1 = 4.36 (active)
CCGCGCCGUUGAUUCAUUUTT against Spata17 = 1.08 (inactive)
GGUCUUCAAUUUCUUCAAATT against 4930430F08Rik = 0.928 (inactive)
CGAUUGUCGGGUUUUGUUUTT against Nutf2 = -2.53 (active)
CGUUCUUGAGAGUCGAUCATT against Smoc2 = -0.19 (inactive)
GGGUGUAGUCCUGAAAGUATT against Arpc5l = 2.45 (active)
GGCAGAAAGAUUAUGAGUUTT against Gpr171 = 2.35 (active)
GGCUUUUCUGCCAUUUAUGTT against Sox18 = 0.23 (inactive)
GGACUCCGUCAUAUACGAATT against Olfr1102 = -0.187 (inactive)
GGAGCUGGACAAGUUCAUGTT against Clrn1 = -0.994 (inactive)
